TGT: JAK2(JH1domain-catalytic) (Homo sapiens)
Construct: JAK2(JH1domain-catalytic); purchased Eurofins DiscoverX KINOMEscan (scanTK)
Sequence (O60674 849-1132 limits assumed): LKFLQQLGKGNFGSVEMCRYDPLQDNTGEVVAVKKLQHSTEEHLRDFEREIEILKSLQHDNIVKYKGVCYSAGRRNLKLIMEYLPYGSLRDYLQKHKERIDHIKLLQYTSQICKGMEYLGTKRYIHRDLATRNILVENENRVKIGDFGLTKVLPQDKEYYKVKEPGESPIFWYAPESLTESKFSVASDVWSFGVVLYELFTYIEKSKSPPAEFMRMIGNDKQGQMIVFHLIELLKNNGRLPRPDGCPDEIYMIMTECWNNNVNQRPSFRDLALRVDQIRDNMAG
ASSAY_PROCEDURE: KINOMEscan ScanTK
Format: binding
REPORTED_CONDITIONS: read-out: %Control @1000nM
MEASUREMENT_NAME: remaining binding at 1 µM (%)
Answer format: numeric, % implied, no suffix.

What value of measured remaining binding at 1 µM is listed for Cc1cnc(S(C)(=O)=O)nc1N1CCCC(n2nc(-c3ccc(Oc4ccccc4)cc3)c3c(N)ncnc32)C1 (centres unmarked) [Compound 8a] ?
87

What value of measured remaining binding at 1 µM is listed for C=CC(=O)N1CCC[C@@H](n2nc(-c3ccc(Oc4ccccc4)cc3)c3c(N)ncnc32)C1 [Compound 1g, Ibrutinib, reference compound] ?
100

What value of measured remaining binding at 1 µM is listed for CCOC(=O)c1cnc(S(C)(=O)=O)nc1N1CCC[C@@H](n2nc(-c3ccc(Oc4ccccc4)cc3)c3c(N)ncnc32)C1 [Compound 8c] ?
83

What value of measured remaining binding at 1 µM is listed for CNC(=O)c1cnc(S(C)(=O)=O)nc1N1CCCC(n2nc(-c3ccc(Oc4ccccc4)cc3)c3c(N)ncnc32)C1 (centres unmarked) [Compound 8d] ?
86

What value of measured remaining binding at 1 µM is listed for COC(=O)c1cnc(S(C)(=O)=O)nc1N1CCCC(n2nc(-c3ccc(Oc4ccccc4)cc3)c3c(N)ncnc32)C1 (centres unmarked) [Compound 8b] ?
82
